Molecular target: human adenosine A2b receptor (Homo sapiens)
Experiment: Cellular in vitro reporter gene test for A2b receptor activity (antagonism of NECA)
Settings: recombinant CHO-K1 cells, CRE-luciferase reporter, co-incubation with EC50 concentration of NECA, 3 hours
pIC50: −log10 of the molar value.
endpointLabel: pIC50

[I] CCC1CC1n1c(=O)c2c(C)c(Cn3nc[nH]c3=O)sc2n(CCOC)c1=O (single isomer, unassigned) [Example 305]
[II] COCCn1c(=O)n(C2CCCC2)c(=O)c2c(C)c(CN3CCNC3=NC#N)sc21
Prompt: Field: lower recorded pIC50 (choose I or II ) Kindly give the label for the entry you pick.
Completion: I
(I: 6.92, II: 7.55)

[1] Cc1c(Cn2nc[nH]c2=O)sc2c1c(=O)n(C1CC1)c(=O)n2CC1CCC(F)(F)C1 (single isomer, unassigned) [Example 211]
[2] Cc1c(Cn2nc[nH]c2=O)sc2c1c(=O)n([C@H]1C[C@@H]1C)c(=O)n2CC1CC(F)(F)C1
Prompt: Field: lower recorded pIC50 (choose 1 or 2 ) Kindly give the label for the entry you pick.
Completion: 1

----------
Molecular target: human adenosine A2b receptor (Homo sapiens)
Assay: Cellular in vitro reporter gene test for A2b receptor activity (antagonism of NECA)
Conditions: recombinant CHO-K1 cells, CRE-luciferase reporter, co-incubation with EC50 concentration of NECA, 3 hours
Procedure: The identification of selective antagonists of the human adenosine A2b receptor and the quantification of the efficacy and selectivity of the compounds according to the invention was carried out with the aid of recombinant cell lines for the human adenosine receptors A1, A2a, A2b and A3. These cell lines were originally derived from an ovarepithelial cell of the hamster (Chinese Hamster Ovary, CHO-K1, American Type Culture Collection, Manassas, Va. 20108, USA). […]
endpointLabel: IC50 (nM)

- COC(=O)N=C1NCCN1Cc1sc2c(c1C)c(=O)n(C1CC(C)(C)C1)c(=O)n2CCC(F)(F)F: 4.7
- Cc1c(CN2CCNC2=O)sc2c1c(=O)n(C1CC1C)c(=O)n2CCSC(F)(F)F (single isomer, unassigned) [Example 280]: 3.4
- CO[C@H]1C[C@H](n2c(=O)c3c(C)c(Cn4nc[nH]c4=O)sc3n(CCC(F)(F)F)c2=O)C1: 66
- Cc1c(Cn2nc[nH]c2=O)sc2c1c(=O)n(C1CC1)c(=O)n2CCF: 210
- Cc1c(CN2CCNC2=O)sc2c1c(=O)n(C1(C)CC1)c(=O)n2CC1CC1(F)F (single isomer, unassigned) [Example 65]: 36
- Cc1c(CN2CCNC(=O)C2=O)sc2c1c(=O)n(C1CC(F)(F)C1)c(=O)n2CCC(F)(F)F: 10

[A] COCCn1c(=O)n(C2CC2OC)c(=O)c2c(C)c(Cn3nc[nH]c3=O)sc21 (racemic) [Example 309]
[B] CCCCn1c(=O)n([C@H]2C[C@@H]2C)c(=O)c2c(C)c(Cn3nc[nH]c3=O)sc21
[C] COCCn1c(=O)n(C2(C(F)(F)F)CC2)c(=O)c2c(C)c(CN3CCNC(=O)C3=O)sc21
Prompt: Sort these molecules on IC50 so the largest reading comes first. Arrange the labels as the request states and list them.
Completion: C, A, B

[1] Cc1c(CN2CCNC2=O)sc2c1c(=O)n(C1CC1C)c(=O)n2C (racemic) [Example 221]
[2] Cc1c(CN2CCNC2=O)sc2c1c(=O)n(C1CC1C)c(=O)n2CC(F)(F)F (single isomer, unassigned) [Example 238]
[3] Cc1c(Cn2nc[nH]c2=O)sc2c1c(=O)n(C1CC1)c(=O)n2CC1CC1(F)F (single isomer, unassigned; enantiomer 1) [Example 21]
Prompt: Could you please order the items by IC50, going from the lowest number to the highest? Arrange the labels as the request states and list them.
Completion: 1, 2, 3
(1: 3.3 nM, 2: 24 nM, 3: 53 nM)

[a] COCCn1c(=O)n(C2CCCC2)c(=O)c2c(C)c(CN3CCNC3=NC(=O)OC)sc21
[b] CCOCCn1c(=O)n(C2CC2)c(=O)c2c(C)c(CN3CCNC3=O)sc21
Prompt: Between these two entries, a and b , state which has the higher IC50. Kindly give the label for the entry you pick.
Completion: b

----------
Molecular target: UniProt P29275
Assay: Cellular in vitro reporter gene test for A2b receptor activity (antagonism of NECA)
Conditions: recombinant CHO-K1 cells, CRE-luciferase reporter, co-incubation with EC50 concentration of NECA, 3 hours
endpointLabel: IC50 (nM)

As a guide, the following entries are already answered.
- COCCn1c(=O)n(C2(C(F)(F)F)CC2)c(=O)c2c(C)c(CN3CCNC3=NC#N)sc21 [Example 86]: 270
- COCCn1c(=O)n(C2CC3(CCC3)C2)c(=O)c2c(C)c(CN3CCNC3=O)sc21 [Example 179]: 10
- Cc1c(Cn2nc[nH]c2=O)sc2c1c(=O)n([C@H]1C[C@@H]1C)c(=O)n2CC(F)F [Example 320]: 13
- COCCn1c(=O)n(C2(C)CC2)c(=O)c2c(C)c(CN3CCNC3=NC#N)sc21 [Example 71]: 12

[P] Cc1c(CN2CCNC2=O)sc2c1c(=O)n(C1CC1C)c(=O)n2CC1CCOC1 (single isomer, unassigned) [Example 291]
[Q] Cc1c(Cn2cc[nH]c2=O)sc2c1c(=O)n(C1(C)CC1)c(=O)n2CCC(F)(F)F [Example 214]
[R] Cc1c(Cn2cc[nH]c2=O)sc2c1c(=O)n(C1CC1C)c(=O)n2CCOC(F)(F)F (racemic) [Example 270]
[S] COCCn1c(=O)n(C2CC2C)c(=O)c2c(C)c(CN3CCNC3=O)sc21 (racemic) [Example 258]
Prompt: Could you please order the items by IC50, going from the lowest number to the highest? Arrange the labels as the request states and list them.
Completion: R, S, Q, P

----------
Biological target: UniProt P29275
Experiment: Cellular in vitro reporter gene test for A2b receptor activity (antagonism of NECA)
Details: recombinant CHO-K1 cells, CRE-luciferase reporter, co-incubation with EC50 concentration of NECA, 3 hours
endpointLabel: IC50 (nM)

As a guide, the following entries are already answered.
- Cc1c(Cn2cc[nH]c2=O)sc2c1c(=O)n(C1CC1)c(=O)n2CC1CCCO1 (single isomer, unassigned) [Example 48]: 56
- COC(=O)N=C1NCCN1Cc1sc2c(c1C)c(=O)n(C1CC1C)c(=O)n2CCOC(F)(F)F (single isomer, unassigned) [Example 269]: 2
- Cc1c(CN2CCNC2=O)sc2c1c(=O)n(C1CC1C)c(=O)n2CCCC(F)(F)F (single isomer, unassigned) [Example 243]: 8.4
- Cc1c(CN2CCNC2=O)sc2c1c(=O)n(C1CC1C)c(=O)n2CC1CC(F)(F)C1 (single isomer, unassigned) [Example 253]: 2.7

[I] COC(=O)N=C1NCCN1Cc1sc2c(c1C)c(=O)n(C1(C)CC1)c(=O)n2CCC(F)(F)F [Example 58]
[II] COCCn1c(=O)n(C2CC2C)c(=O)c2c(C)c(CN3CCNC3=O)sc21 (single isomer, unassigned) [Example 96]
Prompt: Field: lower recorded IC50 (choose I or II ) Kindly give the label for the entry you pick.
Completion: II

----------
Target: human adenosine A2b receptor (Homo sapiens)
Sequence (P29275 1-332): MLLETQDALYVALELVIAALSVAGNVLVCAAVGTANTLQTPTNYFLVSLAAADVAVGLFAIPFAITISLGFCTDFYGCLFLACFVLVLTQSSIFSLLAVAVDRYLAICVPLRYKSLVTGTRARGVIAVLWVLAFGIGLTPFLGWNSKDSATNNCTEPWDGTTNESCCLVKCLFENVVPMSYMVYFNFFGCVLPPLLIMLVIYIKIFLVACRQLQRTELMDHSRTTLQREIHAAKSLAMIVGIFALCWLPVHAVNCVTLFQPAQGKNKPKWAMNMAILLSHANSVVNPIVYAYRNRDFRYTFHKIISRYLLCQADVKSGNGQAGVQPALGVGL
Assay: Cellular in vitro reporter gene test for A2b receptor activity (antagonism of NECA)
Settings: recombinant CHO-K1 cells, CRE-luciferase reporter, co-incubation with EC50 concentration of NECA, 3 hours
pIC50: −log10 of the molar value.
endpointLabel: pIC50

As a guide, the following entries are already answered.
• COCCn1c(=O)n(C2CC2OC)c(=O)c2c(C)c(CN3CCNC3=O)sc21 (single isomer, unassigned) [Example 308] = 6.06
• Cc1c(CN2CCNC2=O)sc2c1c(=O)n(C1CC1C)c(=O)n2C[C@H]1CCCO1 (single isomer, unassigned) [Example 288] = 7.33

[A] Cc1c(Cn2nc[nH]c2=O)sc2c1c(=O)n(C1CC1)c(=O)n2CCCCF [Example 198]
[B] Cc1c(Cn2nc[nH]c2=O)sc2c1c(=O)n(C1CC1)c(=O)n2CC1CCC1 [Example 18]
Prompt: Field: lower recorded pIC50 (choose A or B ) Kindly give the label for the entry you pick.
Completion: A
